biological target: Protein farnesyltransferase (Homo sapiens, UniProt P49354+P49356); assay: Inhibition of recombinant human farnesyltransferase using Dansyl-GCVLS as substrate measured for 15 mins by fluorimetric analysis
test.readout: pIC50
// pIC50 here means minus log10 of the molar concentration (mol/L)

Example cases with answers are listed next.
>>> df
                           molecular_string                           subject_of_test  numeric_value
0  CCOC(=O)/C(C#N)=C/[C-](C(=O)c1cc(OC)c(OC)c(OC)c1)[n+]1ccc(N(C)C)cc1  Protein farnesyltransferase (Homo sapiens, UniProt P49354+P49356)           4.32
1  COc1ccc(C(=O)[C-](C=C(C#N)C#N)[n+]2ccc(N(C)C)cc2)cc1  Protein farnesyltransferase (Homo sapiens, UniProt P49354+P49356)           4.65
2  CCOC(=O)/C(C#N)=C/[C-](C(=O)c1ccc(Br)cc1)[n+]1ccc(N(C)C)cc1  Protein farnesyltransferase (Homo sapiens, UniProt P49354+P49356)           4.44
3  CCOC(=O)/C(C#N)=C/[C-](C(=O)c1ccc2c(c1)NC(=O)CO2)[n+]1ccc(N(C)C)cc1  Protein farnesyltransferase (Homo sapiens, UniProt P49354+P49356)           4.26
4  CCOC(=O)/C(C#N)=C/[C-](C(=O)c1ccc(F)cc1)[n+]1ccc(N(C)C)cc1  Protein farnesyltransferase (Homo sapiens, UniProt P49354+P49356)           4.21
5  CCOC(=O)/C(C#N)=C/[C-](C(=O)c1ccc(OC)c(OC)c1)[n+]1ccc(OC)cc1  Protein farnesyltransferase (Homo sapiens, UniProt P49354+P49356)           4.68
6  COc1cc(C(=O)[C-](C=C(C#N)C#N)[n+]2cc(C)cc(C)c2)cc(OC)c1OC  Protein farnesyltransferase (Homo sapiens, UniProt P49354+P49356)           4.70
7  CN(C)c1cc[n+]([C-](C=C(C#N)C#N)C(=O)c2ccc(Br)cc2)cc1  Protein farnesyltransferase (Homo sapiens, UniProt P49354+P49356)           4.71
8  CN(C)c1cc[n+]([C-](C=C(C#N)C#N)C(=O)c2ccc(F)cc2)cc1  Protein farnesyltransferase (Homo sapiens, UniProt P49354+P49356)           4.63
9  COc1cc[n+]([C-](C=C(C#N)C#N)C(=O)c2ccc(OC)c(OC)c2)cc1  Protein farnesyltransferase (Homo sapiens, UniProt P49354+P49356)           4.50

Exercise: Hi! What's the reported pIC50 for CCOC(=O)/C(C#N)=C/[C-](C(=O)c1ccc(OC)cc1)[n+]1ccc(N(C)C)cc1 on Protein farnesyltransferase (Homo sapiens, UniProt P49354+P49356)?
Key: 4.20

Exercise: pIC50 of CN(C)c1cc[n+]([C-](C=C(C#N)C#N)C(=O)c2ccc3c(c2)NC(=O)CO3)cc1 on Protein farnesyltransferase (Homo sapiens, UniProt P49354+P49356)?
Key: 4.59

Exercise: Tell me reported pIC50 for CN(C)c1cc[n+]([C-](C=C(C#N)C#N)C(=O)c2ccc(C#N)cc2)cc1 , tested with Protein farnesyltransferase (Homo sapiens, UniProt P49354+P49356).
Key: 4.62

Exercise: # returns recorded pIC50 (system: Protein farnesyltransferase (Homo sapiens, UniProt P49354+P49356)) for CCOC(=O)/C(C#N)=C/[C-](C(=O)c1ccc(C)cc1)[n+]1ccc(N(C)C)cc1
Key: 4.36

Exercise: Give recorded pIC50 with Protein farnesyltransferase (Homo sapiens, UniProt P49354+P49356) for the following molecule: Cc1ccc(C(=O)[C-](C=C(C#N)C#N)[n+]2ccc(N(C)C)cc2)cc1
Key: 4.84

###

biological target: Protein farnesyltransferase (Homo sapiens, UniProt P49354+P49356); assay: Inhibition of recombinant human farnesyltransferase using Dansyl-GCVLS as substrate measured for 15 mins by fluorimetric analysis
test.readout: pIC50
Please keep in mind that pIC50 is minus log10 of the molar concentration; only the number is needed.

Below are worked cases with known answers.
>>> df
                           molecular_string  numeric_value
0  CN(C)c1cc[n+]([C-](C=C(C#N)C#N)C(=O)c2ccc([N+](=O)[O-])cc2)cc1           4.55
1  CN(C)c1cc[n+]([C-](C=C(C#N)C#N)C(=O)c2ccccc2)cc1           4.34
2  COc1cc(C(=O)[C-](C=C(C#N)C#N)[n+]2ccc(N(C)C)cc2)cc(OC)c1OC           4.81
3  COc1ccc(C(=O)[C-](C=C(C#N)C#N)[n+]2ccc(OC)cc2)cc1           4.56
4  CCOC(=O)/C(C#N)=C/[C-](C(=O)c1ccccc1)[n+]1ccc(N(C)C)cc1           4.51
5  CN(C)c1cc[n+]([C-](C=C(C#N)C#N)C(=O)N2c3ccccc3Sc3ccccc32)cc1           5.33
6  CCOC(=O)/C(C#N)=C/[C-](C(=O)c1ccc(C#N)cc1)[n+]1ccc(N(C)C)cc1           4.34
7  CCOC(=O)/C(C#N)=C/[C-](C(=O)c1cc(OC)c(OC)c(OC)c1)[n+]1cc(C)cc(C)c1           4.36

Exercise: Request the reported pIC50 associated with CCOC(=O)/C(C#N)=C/[C-](C(=O)c1ccc(Cl)cc1)[n+]1ccc(N(C)C)cc1
Key: 4.50

Exercise: Reported pIC50 for COc1ccc(C(=O)[C-](C=C(C#N)C#N)[n+]2cc(C)cc(C)c2)cc1 : what is it?
Key: 4.56

Exercise: Quick check: pIC50 of CN(C)c1cc[n+]([C-](C=C(C#N)C#N)C(=O)c2ccc(Cl)cc2)cc1 ?
Key: 4.90
